target: MaxL homodimer (Homo sapiens, UniProt P61244 1-160); assay: universal protein-binding microarray (PBM); PBS-based mixture, 10 nM His-tagged protein dimer, 2% milk, 200 ng/uL BSA, 50 ng/uL salmon testes DNA, 0.02% TX-100; detection with Alexa 488 anti-His antibody;; high values mean tight binding; conditions: protein: recombinant; tags: C-terminal His-tag (pET21a); chain copies: 2; dsDNA, one strand shown;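 further: fluorescence intensity normalized to that of the highest-ranked 8-mer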
Sequence (P61244 whole entry): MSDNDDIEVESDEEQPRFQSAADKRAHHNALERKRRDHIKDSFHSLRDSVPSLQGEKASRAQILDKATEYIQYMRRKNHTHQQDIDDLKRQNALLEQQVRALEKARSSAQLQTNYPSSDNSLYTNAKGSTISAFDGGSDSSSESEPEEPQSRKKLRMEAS
Over roughly 33,000 sequences, “normalized occupancy” has its median near 0.075; the highest 2% begin near 0.095. What follows is part of a selection rich in the highest values, with near analogues and random picks from the rest.

{"columns": ["query-sequence", "binding signal"],
 "data": [
  ["ACATGCGA", "0.0989 normalized occupancy"],
  ["AATGCAGG", "0.08 normalized occupancy"],
  ["AGTTGGTC", "0.0747 normalized occupancy"],
  ["GTATGGAA", "0.0836 normalized occupancy"],
  ["ATATGCGA", "0.0834 normalized occupancy"],
  ["AAATGCGT", "0.0858 normalized occupancy"],
  ["CATGCAGG", "0.097 normalized occupancy"],
  ["CACGTTTC", "0.105 normalized occupancy"],
  ["CAAACAGG", "0.0747 normalized occupancy"],
  ["CATGCAGC", "0.0946 normalized occupancy"],
  ["AATGTTTA", "0.0748 normalized occupancy"],
  ["AACGTTTC", "0.0739 normalized occupancy"],
  ["AATGCAGA", "0.0752 normalized occupancy"],
  ["AAATGCGG", "0.0791 normalized occupancy"],
  ["AACAAACC", "0.074 normalized occupancy"],
  ["GACGTTTA", "0.0757 normalized occupancy"],
  ["ACATGCGT", "0.127 normalized occupancy"],
  ["CGACCCAC", "0.0808 normalized occupancy"],
  ["CATGCAGA", "0.0959 normalized occupancy"],
  ["CCTGCAGG", "0.074 normalized occupancy"],
  ["TACTTCTA", "0.0754 normalized occupancy"],
  ["AATGAACC", "0.0718 normalized occupancy"]
]}

###

biological target: MaxL homodimer (Homo sapiens, UniProt P61244 1-160); assay: universal protein-binding microarray (PBM); PBS-based mixture, 10 nM His-tagged protein dimer, 2% milk, 200 ng/uL BSA, 50 ng/uL salmon testes DNA, 0.02% TX-100; detection with Alexa 488 anti-His antibody;; high values mean tight binding; settings: protein: recombinant; tags: C-terminal His-tag (pET21a); chain copies: 2; dsDNA, one strand shown;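 further: fluorescence intensity normalized to that of the highest-ranked 8-mer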
Whole data set: some 33,000 sequences, median “normalized occupancy” near 0.075, cut for the highest 2% near 0.095. The list comes from a sample in which the highest values are over-represented; it also holds close analogues and randomly drawn sequences.

{"columns": ["query-sequence", "measurement-units", "binding signal"],
 "data": [
  ["GCCATGCC", "normalized occupancy", 0.0963],
  ["CATACACG", "normalized occupancy", 0.097],
  ["GGTCTGTA", "normalized occupancy", 0.0752],
  ["ACGTGCAT", "normalized occupancy", 0.104],
  ["ATGTGGTC", "normalized occupancy", 0.0985],
  ["GCGTGCCC", "normalized occupancy", 0.0965],
  ["CATCACCC", "normalized occupancy", 0.0788],
  ["ATGTGGAG", "normalized occupancy", 0.0861],
  ["CGTTGCCA", "normalized occupancy", 0.0801],
  ["ACAGGCAT", "normalized occupancy", 0.0804],
  ["CCCTTGCA", "normalized occupancy", 0.0735],
  ["CACACGTG", "normalized occupancy", 0.553],
  ["ACAATGTA", "normalized occupancy", 0.085],
  ["ATGATTTA", "normalized occupancy", 0.079],
  ["GAATCCTA", "normalized occupancy", 0.0741],
  ["ACGCATGA", "normalized occupancy", 0.102],
  ["ATGATGGC", "normalized occupancy", 0.0855],
  ["ACCATGGC", "normalized occupancy", 0.0734],
  ["CACACGTA", "normalized occupancy", 0.0925],
  ["AAGTGCAT", "normalized occupancy", 0.085],
  ["CCGTGCAC", "normalized occupancy", 0.0816],
  ["ATGTGGTG", "normalized occupancy", 0.0894],
  ["TACACGTA", "normalized occupancy", 0.083],
  ["ACCATGCC", "normalized occupancy", 0.0954],
  ["CTGCTCTC", "normalized occupancy", 0.0736],
  ["AGATTATC", "normalized occupancy", 0.0807],
  ["AAATGTAA", "normalized occupancy", 0.0834],
  ["CGTACACG", "normalized occupancy", 0.0971],
  ["ACAATAGA", "normalized occupancy", 0.0762],
  ["ATGTGGTA", "normalized occupancy", 0.0922],
  ["ACAATGTC", "normalized occupancy", 0.079],
  ["CCCATGCA", "normalized occupancy", 0.0973],
  ["ATTAGTCA", "normalized occupancy", 0.0775],
  ["CATACACC", "normalized occupancy", 0.0901],
  ["ACGCATCA", "normalized occupancy", 0.0829],
  ["ACGTGCAG", "normalized occupancy", 0.101]
]}

###

target: MaxL homodimer (Homo sapiens, UniProt P61244 1-160); test: universal protein-binding microarray (PBM); PBS-based mixture, 10 nM His-tagged protein dimer, 2% milk, 200 ng/uL BSA, 50 ng/uL salmon testes DNA, 0.02% TX-100; detection with Alexa 488 anti-His antibody;; high values mean tight binding; settings: protein: recombinant; tags: C-terminal His-tag (pET21a); chain copies: 2; dsDNA, one strand shown;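 further: fluorescence intensity normalized to that of the highest-ranked 8-mer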
Over roughly 33,000 sequences, “normalized occupancy” has its median near 0.075; the highest 2% begin near 0.095. Only a selection was taken, and the highest values are over-represented in it overall.
Response key: Criterion met means binding signal >= 0.08 normalized occupancy; Criterion not met means binding signal < 0.08 normalized occupancy.

{"columns": ["query-sequence", "study-target", "assigned-category"],
 "data": [
  ["GAGACCCA", "MaxL homodimer (Homo sapiens, UniProt P61244 1-160)", "Criterion not met"],
  ["CTCATGCA", "MaxL homodimer (Homo sapiens, UniProt P61244 1-160)", "Criterion met"],
  ["AAGCAGTA", "MaxL homodimer (Homo sapiens, UniProt P61244 1-160)", "Criterion not met"],
  ["AGTTCTAA", "MaxL homodimer (Homo sapiens, UniProt P61244 1-160)", "Criterion not met"],
  ["CTCATGAC", "MaxL homodimer (Homo sapiens, UniProt P61244 1-160)", "Criterion met"]
]}

###

target: MaxL homodimer (Homo sapiens, UniProt P61244 1-160); assay: universal protein-binding microarray (PBM); PBS-based mixture, 10 nM His-tagged protein dimer, 2% milk, 200 ng/uL BSA, 50 ng/uL salmon testes DNA, 0.02% TX-100; detection with Alexa 488 anti-His antibody;; high values mean tight binding; settings: protein: recombinant; tags: C-terminal His-tag (pET21a); chain copies: 2; dsDNA, one strand shown;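 further: fluorescence intensity normalized to that of the highest-ranked 8-mer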
The full ranking holds about 33,000 sequences; the median of “normalized occupancy” is about 0.075, and the highest 2% start at about 0.095. This is one part of a sample in which the highest values are shown more often than they occur.
measurement-label: binding signal (normalized occupancy)

{"columns": ["query-sequence", "measurement-units", "recorded-value"],
 "data": [
  ["AACATGTT", "normalized occupancy", 0.0895],
  ["GAAATAGC", "normalized occupancy", 0.0789],
  ["CCAACAAG", "normalized occupancy", 0.0776],
  ["TGTGCACA", "normalized occupancy", 0.0902],
  ["AACAGGTC", "normalized occupancy", 0.0733],
  ["AACATGTG", "normalized occupancy", 0.184],
  ["CACAATGG", "normalized occupancy", 0.0783],
  ["ACATGTTC", "normalized occupancy", 0.0965],
  ["AACAGGTG", "normalized occupancy", 0.102],
  ["CACATCTG", "normalized occupancy", 0.0871],
  ["CGTGCACA", "normalized occupancy", 0.0958],
  ["GGACGGCA", "normalized occupancy", 0.0718],
  ["TATGAATA", "normalized occupancy", 0.0823],
  ["ATGCCAAA", "normalized occupancy", 0.0777]
]}

###

Measured binding signal, listed per entry.
molecular target: MaxL homodimer (Homo sapiens, UniProt P61244 1-160); test: universal protein-binding microarray (PBM); PBS-based mixture, 10 nM His-tagged protein dimer, 2% milk, 200 ng/uL BSA, 50 ng/uL salmon testes DNA, 0.02% TX-100; detection with Alexa 488 anti-His antibody;; high values mean tight binding; conditions: protein: recombinant; tags: C-terminal His-tag (pET21a); chain copies: 2; dsDNA, one strand shown;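 further: fluorescence intensity normalized to that of the highest-ranked 8-mer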
The full ranking holds about 33,000 sequences; the median of “normalized occupancy” is about 0.075, and the highest 2% start at about 0.095. What follows is part of a selection rich in the highest values, with near analogues and random picks from the rest.
measurement-label: binding signal (normalized occupancy)

{"columns": ["query-sequence", "study-target", "measurement-units", "recorded-value"],
 "data": [
  ["CCACGGGA", "MaxL homodimer (Homo sapiens, UniProt P61244 1-160)", "normalized occupancy", 0.0794],
  ["TCGTGACA", "MaxL homodimer (Homo sapiens, UniProt P61244 1-160)", "normalized occupancy", 0.0851],
  ["TGCCAAAA", "MaxL homodimer (Homo sapiens, UniProt P61244 1-160)", "normalized occupancy", 0.0792],
  ["GCGACTCA", "MaxL homodimer (Homo sapiens, UniProt P61244 1-160)", "normalized occupancy", 0.0767],
  ["ACCATGAG", "MaxL homodimer (Homo sapiens, UniProt P61244 1-160)", "normalized occupancy", 0.0976],
  ["CCTATGCG", "MaxL homodimer (Homo sapiens, UniProt P61244 1-160)", "normalized occupancy", 0.0749],
  ["ATCATGTC", "MaxL homodimer (Homo sapiens, UniProt P61244 1-160)", "normalized occupancy", 0.0895],
  ["CCCGGTAG", "MaxL homodimer (Homo sapiens, UniProt P61244 1-160)", "normalized occupancy", 0.0721],
  ["AAATTGCA", "MaxL homodimer (Homo sapiens, UniProt P61244 1-160)", "normalized occupancy", 0.0733],
  ["ATGATTGG", "MaxL homodimer (Homo sapiens, UniProt P61244 1-160)", "normalized occupancy", 0.0808],
  ["GTACGGAA", "MaxL homodimer (Homo sapiens, UniProt P61244 1-160)", "normalized occupancy", 0.0756],
  ["CCGTGACA", "MaxL homodimer (Homo sapiens, UniProt P61244 1-160)", "normalized occupancy", 0.0807],
  ["GCGTGACA", "MaxL homodimer (Homo sapiens, UniProt P61244 1-160)", "normalized occupancy", 0.103],
  ["CCCATGCG", "MaxL homodimer (Homo sapiens, UniProt P61244 1-160)", "normalized occupancy", 0.138],
  ["CCCATGCC", "MaxL homodimer (Homo sapiens, UniProt P61244 1-160)", "normalized occupancy", 0.0969],
  ["AAATGGTA", "MaxL homodimer (Homo sapiens, UniProt P61244 1-160)", "normalized occupancy", 0.0806],
  ["CCTTAGCC", "MaxL homodimer (Homo sapiens, UniProt P61244 1-160)", "normalized occupancy", 0.0725],
  ["GCGACAGA", "MaxL homodimer (Homo sapiens, UniProt P61244 1-160)", "normalized occupancy", 0.0794],
  ["CTCCCTCC", "MaxL homodimer (Homo sapiens, UniProt P61244 1-160)", "normalized occupancy", 0.0789],
  ["AAAATCTC", "MaxL homodimer (Homo sapiens, UniProt P61244 1-160)", "normalized occupancy", 0.0762],
  ["CGCTCTAA", "MaxL homodimer (Homo sapiens, UniProt P61244 1-160)", "normalized occupancy", 0.0739],
  ["CCCATGAC", "MaxL homodimer (Homo sapiens, UniProt P61244 1-160)", "normalized occupancy", 0.0853],
  ["CTTTCCAA", "MaxL homodimer (Homo sapiens, UniProt P61244 1-160)", "normalized occupancy", 0.0733],
  ["GCTCCCAC", "MaxL homodimer (Homo sapiens, UniProt P61244 1-160)", "normalized occupancy", 0.075],
  ["GGCCACGA", "MaxL homodimer (Homo sapiens, UniProt P61244 1-160)", "normalized occupancy", 0.0815],
  ["TGTTACAA", "MaxL homodimer (Homo sapiens, UniProt P61244 1-160)", "normalized occupancy", 0.0777],
  ["TCGTTCCA", "MaxL homodimer (Homo sapiens, UniProt P61244 1-160)", "normalized occupancy", 0.0775]
]}
